Study target: T1, UKNP6.1.2 E2E1-I53-50A trimer (Hepatitis C virus genotype 6, strain …, UniProt A0A0U3SJ35, stabilised)
T1 construct: also called UKNP6.1.2 E2E1 trimer; source: HEK293F, co-transfected with furin, purified (Strep-TactinXT, SEC); copies: 3 + 3
Run description: ELISA
Test context: both partners purified

Binder: AT1209 (antibody, V domains shown, also called mature AT1209; source: HEK293F, transfected, purified (protein A/G)) VH: QVLVQSGAEVKKPGSSVRVSCKASGDTFKTHAISWVRQAPGQGLEWVGGTVRQAPGDGLELLGGFVPILAPANDAQKFQGRVTITADGSTGPVYMDLSTLTSEDTAMYYCVTSLSEPIPRSCRGGRCYSGPFDAFGVWGQ VL: EIMLTQSPVTLSVSPGERATLSCRASQSIGTNLAWYQKPGQAPRLLIHGASTRATGVPVSFSGSGSGTEFTLTISSLQSEDFAVYYCQQYNNWPLTFGGGTKVEIK
binding result: binds
